The reported numbers originate from ChEMBL document CHEMBL5058577.

Population Apoptotic (%) by entry:
System: HEK-293T
protocol.notes: Multiplex assay against HEK293T
Format: toxicity, cell-based
particulars: human, 48 h, 10 µM, compound concentration 10 uM, replicate 1
Expressed in %, but write only the number.

Reference set (4 entries):
[[record]]
compound = "O=c1ccc2ccc(OCCCCN3CCN(c4cccc5sccc45)CC3)cc2[nH]1"
assay_metric = "Population Apoptotic (%)"
experimental_value = 93

[[record]]
compound = "CCC(=O)OCC(=O)[C@@]1(OC(=O)CC)[C@@H](C)C[C@H]2[C@@H]3CCC4=CC(=O)C=C[C@]4(C)[C@@]3(Cl)[C@@H](O)C[C@@]21C [BECLOMETHASONE DIPROPIONATE]"
assay_metric = "Population Apoptotic (%)"
experimental_value = 67

[[record]]
compound = "O=C(Nc1cc(-c2ccccc2)nn1-c1ccccc1F)c1ccc([N+](=O)[O-])cc1"
assay_metric = "Population Apoptotic (%)"
experimental_value = 22

[[record]]
compound = "CSc1nc(NC2CCCC2)c([N+](=O)[O-])c(NC2CCCC2)n1"
assay_metric = "Population Apoptotic (%)"
experimental_value = 17


# input Recorded Population Apoptotic (%) for COc1ccc2[nH]c(I)c(CCNC(C)=O)c2c1 , please?
# output 23

# input Here is the next compound: COc1c(Nc2ccc(S(C)(=O)=O)nc2C)ncnc1OC1CCN(C(=O)OC(C)C)CC1
# output 35

# input Could you do the same for O=C(O)CCC/C=C\CC1C(O)CC(O)C1/C=C/C(O)COc1cccc(Cl)c1 (configuration not stated) , please?
# output 33

# input Do the same for Nc1nc(-c2ccco2)c2cnn(Cc3ccccc3F)c2n1 please
# output 36

# input // next record Cn1cc(C(=O)OCC2CCN(CCNS(C)(=O)=O)CC2)c2ccccc21
# output 38

# input Try COc1cc(C(=O)N2CC[C@@H](O)[C@@H](N)C2)cc2nc(-c3cc4ccccc4n3CC3CC3)n(C)c12.Cl next.
# output 76

# input Another compound to check: Cc1cc(NC(=O)NCCN2CCC(O)(Cc3ccccc3)CC2)c2ccccc2n1
# output 29

# input What do you get for Cc1c(Cc2ccc3ccccc3n2)c2cc(F)ccc2n1CC(=O)O ?
# output 33
